# credit: PubChem BioAssay (NCI)

tested on: OVCAR-8 ovarian; assay: NCI-60 one-dose screen, 48 h; conditions: 10 µM unless noted
This is part of a sample that, as a whole, favours compounds with a hit. Of some 83,000 tested, about 20% had one in any assay. Activity calls are given as the source filed them. The calls were made as follows: active = growth percent below 10; inactive = the rest.
Outcomes: active, inactive

[
  {
    "compound": "CCCCn1c(Cc2ccc(Cl)cc2)nc2cc(OC)c(OC)cc2c1=O",
    "class.assignment": "inactive"
  },
  {
    "compound": "Fc1ccc(-c2nc(Nc3ccc(-c4nc5ccccc5[nH]4)cc3)nc(N3CCOCC3)n2)cc1",
    "class.assignment": "active"
  },
  {
    "compound": "CCCCCCCCCCCCCCCCCC1=NC(C)(C)CN1CCO",
    "class.assignment": "active"
  },
  {
    "compound": "C=C(C[C@@](O)(C(=O)Oc1ccccc1)C(=O)C1CCCCC1)c1ccccc1",
    "class.assignment": "inactive"
  },
  {
    "compound": "CCC(CCC(C)C1CCC2C3CC=C4CC(O)CCC4(C)C3CCC12C)C(C)C (stereo not drawn) (tested in a mixture with another compound)",
    "class.assignment": "inactive"
  },
  {
    "compound": "CC[C@@H]1OC(=O)[C@H](C)[C@@H](O[C@H]2C[C@@](C)(OC)[C@@H](O)[C@H](C)O2)[C@H](C)[C@@H](O[C@@H]2O[C@H](C)C[C@H](N(C)C)[C@H]2O)[C@](C)(O)C[C@@H](C)[C@@H]2N[C@@H](COCCOC)O[C@H]([C@H]2C)[C@]1(C)O",
    "class.assignment": "inactive"
  },
  {
    "compound": "CCCCCCCCSc1ncnc2c1ncn2CO",
    "class.assignment": "inactive"
  },
  {
    "compound": "COc1ccc(Cn2c(NCCCN(C)C)nc(=O)n(Cc3ccc(F)cc3)c2=O)cc1",
    "class.assignment": "inactive"
  }
]
